# targetEntity: Human Plasma Factor Xa (human, UniProt P00742)
# testDetails: enzyme inhibition assay; limit on the assumption of less than 10% inhibition at the highest concentration tested
readoutName: Ki

- binder: "EPI-HNE-3 (designed binder) AACNLPIVRGPCIAFFPRWAFDAVKGKCVLFPYGGCQGNGNKFYSEKECREYCGVP"
  readoutName: "Ki"
  measuredResult: "> 100 µM"
- binder: "EPI-HNE-4 (designed binder) EACNLPIVRGPCIAFFPRWAFDAVKGKCVLFPYGGCQGNGNKFYSEKECREYCGVP"
  readoutName: "Ki"
  measuredResult: "> 90 µM"

FYI, the data here is from patent US20060134087A1.
